Origin of the recorded values: PubChem BioAssay (NCI)

# System: MOLT-4 leukemia
# procedure_details: NCI-60 one-dose screen, 48 h (100 = growth as untreated, 0 = no growth, -100 = all killed)
# assay_setup: 10 µM unless noted
This is part of a sample that, as a whole, favours compounds with a hit. Of some 83,000 tested, about 20% had one in any assay.
Listing of recorded growth by entry.
reported_endpoint: growth (%)

>>> reading("Oc1c(C(Nc2cccc3ccccc23)c2ccccc2)ccc2cccnc12 (stereo not given)")
-11.9
>>> reading("Cc1cc2nc(CN)[nH]c2cc1C")
102
>>> reading("CN(C)c1nc(-c2cccs2)n2nc(-c3ccc(Cl)cc3)cc2n1")
82.1
>>> reading("CC(C)c1nc2ccccc2n1CC(=O)N/N=C/c1cccc(O)c1")
91.9
>>> reading("COc1cc(Cl)cc(-c2nn(C(=O)NCCN3CCOCC3)cc2-c2ccncc2)c1")
74.2
>>> reading("Cc1c(C(=O)CCl)c(=O)n(-c2ccccc2)n1C")
24.8
>>> reading("CC1OC(n2c3ccccc3c3c4c(c5c6ccccc6[nH]c5c32)C(=O)N(CCN2CCOCC2)C4=O)CC(O)C1O (stereo not given)")
6.7
>>> reading("COc1cccc(-c2cc(-c3cccs3)c(C#N)c(=O)[nH]2)c1")
107
>>> reading("COc1ccc(C(=O)C(CN(C)C)c2ccc(OC)cc2)cc1 (stereo not given)")
52.9
>>> reading("CCCCn1cnc2c(SCc3ccc([N+](=O)[O-])cc3)nc(N)nc21")
24.3
>>> reading("CC(=O)Oc1c(Cl)c(Cl)c(Cl)c(Cl)c1Cl")
85.6
>>> reading("CCOC(=O)c1ccc2c(c1)nc(-c1ccc(Cl)cc1)n2-c1cc(C(C)(C)C)[nH]n1")
9.68
>>> reading("COc1ccc2[nH]cc(C3(c4c[nH]c5ccc(OC)cc45)C(=O)Nc4ccc(F)cc43)c2c1")
1.29
>>> reading("COc1ccc(C(=O)OC2C(OC3C(O)COC(O[C@H]4C[C@H]5[C@@H]6CC=C7C[C@@H](O)CC[C@]7(C)[C@H]6CC[C@]5(C)[C@H]4[C@H](C)C(=O)CCC(C)C)C3OC(N)=O)OCC(O)C2O)cc1 (stereo not given in full)")
-42.3
>>> reading("CCN(CC)CCCC(C)Nc1c(-c2ccccc2)cnc2cc(Cl)ccc12 (stereo not given)")
48.5
>>> reading("CC(C)(C)OC(=O)N1CCCN(CCNc2nccc(-c3c(-c4cccc(O)c4)nc4sccn34)n2)S1(=O)=O")
90.8
>>> reading("CC(=O)C1CCC2C3CC(C)=C4CC(O)CCC4(C)C3CCC12C (stereo not given)")
80
>>> reading("CC(C)(C)[Si](C)(C)OC1[C@@H](O[Si](C)(C)C(C)(C)C)[C@@H](CNC(=O)NC(=O)NC(=O)CCl)O[C@H]1n1cnc2c(NC(=O)Nc3ccccc3)ncnc21 (stereo not given in full)")
4.05
>>> reading("CCOC(=O)N1C2CCC(C2)N1C(=O)OCC")
93
>>> reading("C=CCN1C(=O)/C(=c2\\sc3n(c2=O)C2C(NN=3)N(CC)C(=O)N2CC)c2ccccc21 (stereo not given)")
19.1
>>> reading("COc1ccc(/C(C)=N/NC(=O)CSc2nc3ccccc3c(=O)n2CCc2ccc(S(N)(=O)=O)cc2)cc1")
43
>>> reading("CCCCOc1nc2ccc(C)cc2cc1/C=C/C(=O)/C=C(O)/C=C/c1cc2cc(C)ccc2nc1OCCCC")
98.8
>>> reading("O=C1C(Cl)=C(Nc2cccc3ccccc23)C(=O)c2ccccc21")
64.9
>>> reading("CCCCCCCCCCCC1=NC(C)(C)CN1CC(C)O (stereo not given)")
25.4
>>> reading("COC1(OC)C2(Cl)CCC1(Cl)C(Cl)=C2Cl")
105
>>> reading("O=C(Nc1ccc(Cl)cc1)c1cc(-c2ccc(Cl)cc2)c2sc(=O)[nH]c2n1")
-24.2
>>> reading("O=[N+]([O-])c1ccc(N/N=C/c2ccccc2O)nc1")
14.3
>>> reading("CN1CCC2(CC1)N=C(SCC(=O)Nc1cnc3ccccc3c1)C(c1ccc(Br)cc1)=N2")
1.51
>>> reading("C=C(c1ccc(C(=O)NCCCn2ccnc2)cc1)c1cc2c(cc1C)C(C)(C)CCC2(C)C")
11.1
>>> reading("CCN(CC)CCNC(=O)n1cc(-c2ccncc2)c(-c2ccc(Cl)c(OC)c2)n1")
82
>>> reading("CC(=O)CC(c1ccc([N+](=O)[O-])cc1)c1c(O)c2ccccc2oc1=O (stereo not given)")
100
>>> reading("COc1cc2ccc(C(C)=O)cc2cc1OC")
127
>>> reading("CS(=O)(=O)c1ccc(C(=O)Nc2ccc(Cl)c(-c3ccccn3)c2)c(Cl)c1")
11.5
>>> reading("CCCCOc1nc2ccccc2cc1/C=C/c1cc(/C=C/c2cc3ccccc3nc2OCCCC)n(-c2ccccc2)n1")
99
>>> reading("COc1cc(C2CC(c3ccccc3)=NN2C=O)ccc1Oc1ccnc2cc(Cl)ccc12 (stereo not given)")
12.8
>>> reading("COc1ccccc1CNCCCN1C(=O)c2ccc3c4c(ccc(c24)C1=O)C(=O)N(CCCNCCCN)C3=O")
-24.5
>>> reading("CCCCOC(=O)c1cc(O)c(O)c(O)c1")
30.7
>>> reading("NC(N)=N/N=C/c1cccc(Cl)c1Cl")
47.6
>>> reading("COc1cc2ncnc(Nc3ccc(S(=O)(=O)Nc4cc(C)on4)cc3)c2cc1OCCCN1CCN(c2ccc([N+](=O)[O-])cc2)CC1")
111
>>> reading("COc1ccc(N=C2CSc3nnc(-c4cc(F)c(Cl)cc4Cl)n3N2)cc1")
-4.82
